biological target: UniProt O75469; assay: human PXR (hPXR) luciferase transactivation reporter assay, pGL4.24-6xPXRE reporter, COS-7 cells
Sequence (O75469 1-473 isoform O75469-7): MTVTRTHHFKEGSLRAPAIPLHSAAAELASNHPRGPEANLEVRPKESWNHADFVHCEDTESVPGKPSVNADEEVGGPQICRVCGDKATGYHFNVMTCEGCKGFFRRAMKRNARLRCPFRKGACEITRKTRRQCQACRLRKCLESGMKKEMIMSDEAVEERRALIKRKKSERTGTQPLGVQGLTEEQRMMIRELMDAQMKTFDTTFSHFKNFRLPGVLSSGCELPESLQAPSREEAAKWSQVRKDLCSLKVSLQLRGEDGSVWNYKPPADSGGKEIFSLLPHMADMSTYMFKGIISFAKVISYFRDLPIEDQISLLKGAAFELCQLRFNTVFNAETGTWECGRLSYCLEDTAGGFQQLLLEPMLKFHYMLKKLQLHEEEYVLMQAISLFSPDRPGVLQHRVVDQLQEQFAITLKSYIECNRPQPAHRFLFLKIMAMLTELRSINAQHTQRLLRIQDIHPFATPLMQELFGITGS
pEC50: −log10 of the molar value.
The reader will find reported pEC50 values listed item by item below.
Quantity: pEC50

Compound: CC(C)NCC(O)COc1cccc2ccccc12 (centres unmarked)
Reported Value: 7.36
//
Compound: Clc1ccccc1C(c1ccccc1)(c1ccccc1)n1ccnc1
Reported Value: 6.06

====

target: cPXR (Cyprinus carpio); assay: carp PXR (cPXR) luciferase transactivation reporter assay, pGL4.24-6xPXRE reporter, COS-7 cells
pEC50: −log10 of the molar value.
Quantity: pEC50

Compound: CCCC1COC(Cn2cncn2)(c2ccc(Cl)cc2Cl)O1 (stereo not shown)
Tested System: cPXR (Cyprinus carpio)
Reported Value: 6.67

====

biological target: cPXR (Cyprinus carpio, UniProt A0A1P8P0E9); assay: carp PXR (cPXR) luciferase transactivation reporter assay, pGL4.24-6xPXRE reporter, COS-7 cells; conditions: concentration-response 10^-11 to 10^-5 M, pGL4.24-6xPXRE reporter
Sequence (A0A1P8P0E9 entry or part of it): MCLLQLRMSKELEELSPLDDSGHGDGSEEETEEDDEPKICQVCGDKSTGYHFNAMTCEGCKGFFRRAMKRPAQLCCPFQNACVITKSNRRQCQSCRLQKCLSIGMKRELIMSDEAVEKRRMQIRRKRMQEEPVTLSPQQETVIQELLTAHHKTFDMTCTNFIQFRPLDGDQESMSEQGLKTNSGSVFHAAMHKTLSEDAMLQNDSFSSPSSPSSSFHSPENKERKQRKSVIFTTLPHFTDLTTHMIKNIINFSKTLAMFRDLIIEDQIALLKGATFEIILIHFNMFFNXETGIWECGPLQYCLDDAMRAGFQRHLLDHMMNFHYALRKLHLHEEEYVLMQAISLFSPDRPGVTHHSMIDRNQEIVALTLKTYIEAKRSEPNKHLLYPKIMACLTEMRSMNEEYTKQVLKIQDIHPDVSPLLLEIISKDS
Quantity: transactivation of cPXR (result in words)

Molecule: CC/C(=C(\c1ccccc1)c1ccc(OCCN(C)C)cc1)c1ccccc1 [TAM, tamoxifen]
Tested System: cPXR (Cyprinus carpio, UniProt A0A1P8P0E9)
Reported Value: had no effect
--
Molecule: CC(=O)N1CCN(c2ccc(OCC3COC(Cn4ccnc4)(c4ccc(Cl)cc4Cl)O3)cc2)CC1 (stereo not shown) [KTZ, ketoconazole]
Tested System: cPXR (Cyprinus carpio, UniProt A0A1P8P0E9)
Reported Value: had no effect
